B1: Intersectin-2, residues 1129 to 1183; numbered along this chain, Q9NZM3 (parent)
chain: VCQVIAMYDYAANNEDELSFSKGQLINVMNKDDPDWWQGEINGVTGLFPSNYVKM

# Variants of: B1
# method_notes: abundance fitness (aPCA) (normalised: wild type 0, dead -1); higher = more abundant; growth selection in yeast, the domain comes from the species named
# experimental_parameters: Homo sapiens
Response field class: enum, chosen by comparing abundance fitness against low end (below -0.2), middle (-0.2 to below -0.04), high end (-0.04 or more)

// known answers, use as guide
[[record]]
seq_string = "VCQVMAMYDYAANNEDELSFSKGQLINVMNKDDPDWWQGEINGVTGLFPSNYVKM"
class_name = "middle"

[[record]]
seq_string = "VCQVIAMYDYAANNEDELSFSKGQLINVMNKDDPDWWQGEINGVTTLFPSNYVKM"
class_name = "low end"

[[record]]
seq_string = "VCQVIAMYWYAANNEDELSFSKGQLINVMNKDDPDWWQGEINGVTGLFPSNYVKM"
class_name = "low end"

[[record]]
seq_string = "VCQVIAMYDYAANNEDELSFSKQQLINVMNKDDPDWWQGEINGVTGLFPSNYVKM"
class_name = "middle"

[[record]]
seq_string = "VCQVIAMYDYAANNEDELSFSKGQLINVMNKDDPDWWQGDINGVTGLFPSNYVKM"
class_name = "middle"


## Input Bin this entry: `VCQVIAMYDVAANNEDELSFSKGQLINVMNKDDPDWWQGEINGVTGLFPSNYVKM`
## Output low end

## Input Bin this entry: `VCQVIAMYDYAANNEDELSFSKGQGINVMNKDDPDWWQGEINGVTGLFPSNYVKM`
## Output high end

## Input Bin this entry: `VCQVIAMYDYAYNNEDELSFSKGQLINVMNKDDPDWWQGEINGVTGLFPSNYVKM`
## Output low end

## Input Bin this entry: `VCQVIAMYDYAANNEDELSFSKGQLINVMNKDDPDWWQGEKNGVTGLFPSNYVKM`
## Output middle

## Input Bin this entry: `VCQVIAMYDYAANNEDELSFSKGQLINVMNKDDPDWWVGEINGVTGLFPSNYVKM`
## Output high end

## Input Bin this entry: `VCQVIAMYDYAANNEDELSFSKGQLINVMNKDEPDWWQGEINGVTGLFPSNYVKM`
## Output high end

## Input Bin this entry: `VCQVIAMYDYAANNEDELSFSKGQLINVMNKDDPDWWWGEINGVTGLFPSNYVKM`
## Output low end

## Input Bin this entry: `VCQVIAMYDYAANNEDELSFSKGQLINVMNKDDPDWWQGEINGVEGLFPSNYVKM`
## Output middle

## Input Bin this entry: `VCQVIAMYDYKANNEDELSFSKGQLINVMNKDDPDWWQGEINGVTGLFPSNYVKM`
## Output high end

## Input Bin this entry: `VCQVIAMYDYAANNEDELSFSSGQLINVMNKDDPDWWQGEINGVTGLFPSNYVKM`
## Output middle

## Input Bin this entry: `VCIVIAMYDYAANNEDELSFSKGQLINVMNKDDPDWWQGEINGVTGLFPSNYVKM`
## Output high end

## Input Bin this entry: `VCQVIAMYDYAANNEDELSFSKGHLINVMNKDDPDWWQGEINGVTGLFPSNYVKM`
## Output middle

## Input Bin this entry: `VCQVIAMYDYAANNEDELSFSKGQLDNVMNKDDPDWWQGEINGVTGLFPSNYVKM`
## Output low end

## Input Bin this entry: `VCQVIAMYDYAANNEDEVSFSKGQLINVMNKDDPDWWQGEINGVTGLFPSNYVKM`
## Output middle

## Input Bin this entry: `VCQVIAMYDYAANNEWELSFSKGQLINVMNKDDPDWWQGEINGVTGLFPSNYVKM`
## Output middle

## Input Bin this entry: `VCQVIAMYDYAANNEDELSFSKGQLINAMNKDDPDWWQGEINGVTGLFPSNYVKM`
## Output low end

## Input Bin this entry: `VCQVIAMYDYAANNEDELSFSKGQLINVMNKDDPDWWQGEINGVTCLFPSNYVKM`
## Output low end

## Input Bin this entry: `VCQVIAMYDYAANNEDELSFSKGQLINVMNKDDPDWWQGEDNGVTGLFPSNYVKM`
## Output low end

## Input Bin this entry: `VCQVIAMYDYAANNPDELSFSKGQLINVMNKDDPDWWQGEINGVTGLFPSNYVKM`
## Output high end

## Input Bin this entry: `VCQVIAMYDYAANNEDELSFSKGQLINVMNKDDPDKWQGEINGVTGLFPSNYVKM`
## Output high end

## Input Bin this entry: `VCQVIAMYDYAANNEDELSFSKGQLINVMNKDSPDWWQGEINGVTGLFPSNYVKM`
## Output high end

## Input Bin this entry: `VCQVIAMYQYAANNEDELSFSKGQLINVMNKDDPDWWQGEINGVTGLFPSNYVKM`
## Output middle

## Input Bin this entry: `VCQVIAMYDYAANNEDELSFSKGQLINVMNKDDPDWWQWEINGVTGLFPSNYVKM`
## Output low end

## Input Bin this entry: `VCQVIAMYDYAARNEDELSFSKGQLINVMNKDDPDWWQGEINGVTGLFPSNYVKM`
## Output high end

## Input Bin this entry: `VCQVIAMYDYAANNEDELSFSKGQLINVMNKDCPDWWQGEINGVTGLFPSNYVKM`
## Output high end

## Input Bin this entry: `VCQVIAMYDYAANNEDELSFSKGQLINVMNKDDPDWWQGEINGVTGLFNSNYVKM`
## Output middle
